binding signal listing for selected binders.
- measured.target: prothrombin (Homo sapiens, UniProt P00734 P00734:44-622)
- assay.summary: filter; 50 nM prothrombin
- condition.summary: tags: Athens Research
Expressed in % bound, but write only the number.

{"binder": "TCCCTGGAGATCCGGGGTAGTATACTGGTTTGGGTGGCTGAGGATCGATC (ssDNA) [AMX(398)_A12]", "parameter": "binding signal", "reported.value": 37.5}
{"binder": "TCCCGATCGGACGTGGTGGGTTACTTCTGGGTGGCTGAGGATCGATC (ssDNA) [AMX(398)_E5]", "parameter": "binding signal", "reported.value": 25.4}

Could you now consider this next binder?
Exercise: Hello, please tell me recorded binding signal for this one: TCCCACGATCCGGGGTGTCTTTCGTGGGCTGGGTGGCTGAGGATCGATC (ssDNA) [AMX(399)_E1]
Key: 39.1
